Every entry's value here was drawn from patent US5703085A.

Let's look at some compounds and their measured inhibition in vivo at 10 mg/kg.
assay-name: Effect on haloperidol-induced catalepsy
Format: in vivo, male ddY mice
assay-conditions: Mus musculus, 1 h; 10 mg/kg po; 10 mice; decrease in total score vs control group; read-out: Remission Rate (%)
observable: inhibition in vivo at 10 mg/kg (%)

* CCn1c(=O)c2c(nc(/C=C/c3ccc(OC(C)=O)cc3)n2C)n(CC)c1=O | 78
* CCC(=O)Oc1ccc(/C=C/c2nc3c(c(=O)n(CC)c(=O)n3CC)n2C)cc1OC | 80
* CCn1c(=O)c2c(nc(/C=C/c3ccc(OC(=O)C(C)(C)C)c(OC)c3)n2C)n(CC)c1=O | 72
* CCn1c(=O)c2c(nc(/C=C/c3cc(OC)c(OC(C)=O)c(OC)c3)n2C)n(CC)c1=O | 40
* CCn1c(=O)c2c(nc(/C=C/c3cc(OC)c(OC(=O)c4ccccc4)c(OC)c3)n2C)n(CC)c1=O | 40

---

A2 Receptor Inhibition Rate (%) values, listed per item
assayed-target: A2 Receptor (Rattus norvegicus)
Construct: from tissue; host or cells: rat corpus striatum (membrane suspension)
assay-name: Adenosine A2 receptor binding test (inhibition of 3H-CGS 21680 binding)
assay-conditions: 10^-7 M; rat corpus striatum, 3H-CGS 21680 4.0 nM
observable: A2 Receptor Inhibition Rate (%)

• CCn1c(=O)c2c(nc(/C=C/c3cccc(OC)c3OC(C)=O)n2C)n(CC)c1=O = 95
• CCn1c(=O)c2c(nc(/C=C/c3cccc(OC(C)=O)c3)n2C)n(CC)c1=O = 81
• CCn1c(=O)c2c(nc(/C=C/c3ccc(OC(C)=O)cc3)n2C)n(CC)c1=O = 86
• CCCn1c(=O)c2c(nc(/C=C/c3ccc(OC)c(OC(C)=O)c3)n2C)n(CCC)c1=O = 61
• CCC(=O)Oc1ccc(/C=C/c2nc3c(c(=O)n(CC)c(=O)n3CC)n2C)cc1OC = 86
• CCn1c(=O)c2c(nc(/C=C/c3cc(OC)ccc3OC(C)=O)n2C)n(CC)c1=O = 90
• C=CCn1c(=O)c2c(nc(/C=C/c3ccc(OC(C)=O)c(OC)c3)n2C)n(CC=C)c1=O = 85
• C=CCn1c(=O)c2c(nc(/C=C/c3cc(OC)c(OC(C)=O)c(OC)c3)n2C)n(CC=C)c1=O = 91
• CCn1c(=O)c2c(nc(/C=C/c3cc(OC)c(OC(C)=O)c(OC)c3)n2C)n(CC)c1=O = 80
• CCCn1c(=O)c2c(nc(/C=C/c3ccc(OC(C)=O)c(OC)c3)n2C)n(CCC)c1=O = 94
• CCn1c(=O)c2c(nc(/C=C/c3cccc(OC(C)=O)c3OC(C)=O)n2C)n(CC)c1=O = 75
• CCCn1c(=O)c2c(nc(/C=C/c3ccc(OC(C)=O)c(OC(C)=O)c3)n2C)n(CCC)c1=O = 89
• CCn1c(=O)c2c(nc(/C=C/c3ccc(OC(=O)c4ccccc4)c(OC)c3)n2C)n(CC)c1=O = 87
• CCn1c(=O)c2c(nc(/C=C/c3cc(OC)c(OC(=O)c4ccccc4)c(OC)c3)n2C)n(CC)c1=O = 82
• CCCn1c(=O)c2c(nc(/C=C/c3cc(OC(C)=O)cc(OC(C)=O)c3)n2C)n(CCC)c1=O = 88
• CCn1c(=O)c2c(nc(/C=C/c3ccc(OC)c(OC(C)=O)c3)n2C)n(CC)c1=O = 81
• CCCn1c(=O)c2c(nc(/C=C/c3ccc(OC(=O)c4ccccc4)c(OC)c3)n2C)n(CCC)c1=O = 81
• CCn1c(=O)c2c(nc(/C=C/c3cccc(OC(=O)c4ccccc4)c3)n2C)n(CC)c1=O = 92
• CCn1c(=O)c2c(nc(/C=C/c3ccc(OC(C)=O)c(OC)c3)n2C)n(CC)c1=O = 91

---

assayed-target: A2 Receptor (Rattus norvegicus, UniProt P30543)
Construct: from tissue; host or cells: rat corpus striatum (membrane suspension)
Sequence (P30543 whole entry): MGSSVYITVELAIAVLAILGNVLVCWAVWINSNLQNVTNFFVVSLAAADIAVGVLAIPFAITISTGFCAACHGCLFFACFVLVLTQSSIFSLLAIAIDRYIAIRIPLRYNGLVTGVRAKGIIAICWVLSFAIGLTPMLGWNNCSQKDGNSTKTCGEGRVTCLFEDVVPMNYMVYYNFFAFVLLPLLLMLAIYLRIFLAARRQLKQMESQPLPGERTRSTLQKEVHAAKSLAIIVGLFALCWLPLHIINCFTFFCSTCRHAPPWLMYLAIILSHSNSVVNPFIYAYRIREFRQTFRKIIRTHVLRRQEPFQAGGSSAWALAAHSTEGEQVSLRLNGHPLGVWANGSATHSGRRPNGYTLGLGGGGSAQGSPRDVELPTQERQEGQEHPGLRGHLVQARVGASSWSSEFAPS
assay-name: Adenosine A2 receptor binding test (inhibition of 3H-CGS 21680 binding)
assay-conditions: 10^-6 M; rat corpus striatum, 3H-CGS 21680 4.0 nM
observable: A2 Receptor Inhibition Rate (%)

• CCn1c(=O)c2c(nc(/C=C/c3ccc(OC(C)=O)cc3)n2C)n(CC)c1=O [Compound 14] = 93%
• CCn1c(=O)c2c(nc(/C=C/c3cccc(OC(C)=O)c3OC(C)=O)n2C)n(CC)c1=O [Compound 26] = 101%
• CCn1c(=O)c2c(nc(/C=C/c3cccc(OC)c3OC(C)=O)n2C)n(CC)c1=O [Compound 25] = 101%
• CCn1c(=O)c2c(nc(/C=C/c3cc(OC)c(OC(=O)c4ccccc4)c(OC)c3)n2C)n(CC)c1=O [Compound 18] = 97%
• CCn1c(=O)c2c(nc(/C=C/c3ccc(OC(=O)c4ccccc4)c(OC)c3)n2C)n(CC)c1=O [Compound 7] = 97%
• CCn1c(=O)c2c(nc(/C=C/c3cc(OC)c(OC(C)=O)c(OC)c3)n2C)n(CC)c1=O [Compound 17] = 97%
• C=CCn1c(=O)c2c(nc(/C=C/c3ccc(OC(C)=O)c(OC)c3)n2C)n(CC=C)c1=O [Compound 15] = 91%
• CCn1c(=O)c2c(nc(/C=C/c3cc(OC)ccc3OC(C)=O)n2C)n(CC)c1=O [Compound 23] = 101%

---

Recorded A2 Receptor Inhibition Rate (%) by entry
assayed-target: A2 Receptor (Rattus norvegicus, UniProt P30543)
Construct: from tissue; host or cells: rat corpus striatum (membrane suspension)
assay-name: Adenosine A2 receptor binding test (inhibition of 3H-CGS 21680 binding)
assay-conditions: 10^-6 M; rat corpus striatum, 3H-CGS 21680 4.0 nM
observable: A2 Receptor Inhibition Rate (%)

- CCCn1c(=O)c2c(nc(/C=C/c3ccc(OC)c(OC(C)=O)c3)n2C)n(CCC)c1=O [Compound 3]: 96
- CCC(=O)Oc1ccc(/C=C/c2nc3c(c(=O)n(CC)c(=O)n3CC)n2C)cc1OC [Compound 12]: 96
- CCCn1c(=O)c2c(nc(/C=C/c3cc(OC(C)=O)cc(OC(C)=O)c3)n2C)n(CCC)c1=O [Compound 9]: 96
- CCCn1c(=O)c2c(nc(/C=C/c3ccc(OC(=O)c4ccccc4)c(OC)c3)n2C)n(CCC)c1=O [Compound 6]: 96
- CCn1c(=O)c2c(nc(/C=C/c3cccc(OC(C)=O)c3)n2C)n(CC)c1=O [Compound 21]: 96
- CCCn1c(=O)c2c(nc(/C=C/c3ccc(OC(C)=O)c(OC(C)=O)c3)n2C)n(CCC)c1=O [Compound 1]: 93
- C=CCn1c(=O)c2c(nc(/C=C/c3cc(OC)c(OC(C)=O)c(OC)c3)n2C)n(CC=C)c1=O [Compound 19]: 96
- CCn1c(=O)c2c(nc(/C=C/c3ccc(OC(C)=O)c(OC)c3)n2C)n(CC)c1=O [Compound 5]: 100
- CCCn1c(=O)c2c(nc(/C=C/c3ccc(OC(C)=O)c(OC)c3)n2C)n(CCC)c1=O [Compound 4]: 98
- CCn1c(=O)c2c(nc(/C=C/c3ccc(OC)c(OC(C)=O)c3)n2C)n(CC)c1=O [Compound 16]: 96
- CCn1c(=O)c2c(nc(/C=C/c3cccc(OC(=O)c4ccccc4)c3)n2C)n(CC)c1=O [Compound 22]: 99
